Reference source: the emibetuzumab library of Makowski et al. (2022)

B1: VH:VL chains; a variant is named by its letters at X, in order (parent)
chain 1: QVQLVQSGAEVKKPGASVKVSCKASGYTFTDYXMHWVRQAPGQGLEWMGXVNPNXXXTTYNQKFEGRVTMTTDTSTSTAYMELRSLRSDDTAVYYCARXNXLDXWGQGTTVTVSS
chain 2: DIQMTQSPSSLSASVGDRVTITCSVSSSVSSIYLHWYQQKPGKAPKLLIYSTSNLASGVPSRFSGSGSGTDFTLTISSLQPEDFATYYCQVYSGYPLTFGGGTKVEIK

Variants of: B1
test.details: yeast display scFab, FACS + sequencing
value.kind: non-specific binding call

The cases that follow already have their non-specific binding call on record.
- changes: "DGGKNAGD"
  measured: "no binding"
- changes: "YRGKDAWS"
  measured: "binds"
- changes: "YRARGAGS"
  measured: "binds"
- changes: "ATGRADWA"
  measured: "no binding"

-- ask non-specific binding call lookup needed for `YKGKGSLA` , thanks.
-- reply binds

-- ask non-specific binding call lookup needed for `VTGGDALA` , thanks.
-- reply no binding

-- ask non-specific binding call lookup needed for `YAAGSDVY` , thanks.
-- reply no binding

-- ask non-specific binding call lookup needed for `DAGGAAVA` , thanks.
-- reply no binding

-- ask non-specific binding call lookup needed for `SEARSSSV` , thanks.
-- reply no binding

-- ask non-specific binding call lookup needed for `VKGRADAV` , thanks.
-- reply no binding

-- ask non-specific binding call lookup needed for `YEGGGFSV` , thanks.
-- reply no binding

-- ask non-specific binding call lookup needed for `DTREGDVA` , thanks.
-- reply no binding

-- ask non-specific binding call lookup needed for `FRGKGSGD` , thanks.
-- reply binds
